# assay-procedure: HUVEC growth inhibition – cell-based, human, primary screen (AID 575);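 also: 100% = median of untreated cell wells with 0.1% DMSO on each plate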
# test-parameters: HUVEC proliferation, CellTiter-Glo luminescence, 72 h; at 10 µM; active compounds read low
recorded-endpoint: viability (%)
One number for each entry, in %.

Recorded viability, per entry:
compound | viability [%]
C[C@]12C[C@H](O)[C@H]3[C@@H](CCC4=CC(=O)CC[C@@]43C)[C@@H]1CC[C@@H]2C(=O)CO | 105
CN(C)C(=O)CSc1nnc([C@H](Cc2c[nH]c3ccccc23)NC(=O)OC(C)(C)C)o1 | 94.9

Note: attention shifts to another entry.
The recorded viability for entry CCC(C)(C(=O)NC1CCCCC1)N(Cc1ccco1)C(=O)c1ccc2c(c1)OCO2 (stereo not drawn) equals 82.3

----------
# assay-procedure: HUVEC growth inhibition – cell-based, human, primary screen (AID 575);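 also: 100% = median of untreated cell wells with 0.1% DMSO on each plate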
# test-parameters: HUVEC proliferation, CellTiter-Glo luminescence, 72 h; at 10 µM; active compounds read low
So I've got a bunch of molecules here, and I need their viability values.
One number for each entry, in %.

Recorded viability, per entry:
molecule | recorded-endpoint | test-value
CCOc1ccc(-c2nnn(CCC(=O)O)n2)cc1OC | viability | 104
Cc1cc(=O)oc2cc(OCC(=O)OCc3nnc(-c4ccccc4)o3)ccc12 | viability | 84.1
O=C(COc1ccccc1)Nc1nc2ccccc2[nH]1 | viability | 92.5
CCN(CC)C(=O)Cn1c(=O)n(Cc2ccccc2Cl)c2c1c(=O)n(C)c(=O)n2C | viability | 98.6
COc1cc2nc(N3CCN(C(=O)C4CCCO4)CC3)nc(N)c2cc1OC (stereo unspecified) | viability | 98.5

Go through the list and state viability for each entry.
1. CCOC(=O)c1[nH]nc(N)c1NC(=O)c1ccc(Cl)cc1Cl
2. CCCCOn1c(C)c(C(=O)OCC)c2c3nonc3ccc21

A)
1. 89.9
2. 63.5

Go through the list and state viability for each entry.
1. COc1cc(OC)cc(C(=O)N2c3ccc(F)cc3CCC2C)c1 (stereo unspecified)
2. CCCCNc1cc(C)oc(=O)c1C(C)=O
3. CCOc1ccc(NC(=O)c2ccc3c(c2)N(Cc2ccc(F)cc2)C(=O)CS3=O)cc1 (stereo unspecified)
4. O=C(CS(=O)(=O)c1cn(Cc2ccc(Cl)cc2)c2ccccc12)N1CCCC1

A)
1. 112
2. 105
3. 70.4
4. 88.2

----------
So I've got a bunch of molecules here, and I need their viability values.
# assay-procedure: HUVEC growth inhibition – cell-based, human, primary screen (AID 575);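 also: 100% = median of untreated cell wells with 0.1% DMSO on each plate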
# test-parameters: HUVEC proliferation, CellTiter-Glo luminescence, 72 h; at 10 µM; active compounds read low
Give bare numbers, in %.

molecule | endpoint-unit | viability
Cc1ccc(S(=O)(=O)N2CCCC2C(=O)n2nc(C)cc2C)cc1 (configuration not stated) | % | 90.1
Cc1onc(-c2ccccc2)c1C(=O)N[C@@H]1C(=O)N2[C@@H]1SC(C)(C)[C@@H]2C(=O)O | % | 91.1
COc1ccc(C(=O)Nc2cccc(C)c2)cc1S(=O)(=O)N1CCOCC1 | % | 108
CCOC(=O)c1ccc(N2C(=O)CC(N(C)CCc3ccc(OC)c(OC)c3)C2=O)cc1 (configuration not stated) | % | 101

Go through the list and state viability for each entry.
1. Cn1nc(C(=O)Nc2cccc(C(F)(F)F)c2)ccc1=O
2. Cc1nc2ccc(NC(=O)N3CCC(c4ccccc4)C3)cc2nc1C (configuration not stated)
3. Cc1ccc(-n2c(Cc3cccn3C)nnc2SCC(=O)NCc2ccc3c(c2)OCO3)cc1

A)
1: 107; 2: 57.7; 3: 88.2

Go through the list and state viability for each entry.
1. CCN(CC)CCN1C(=O)Cn2c(C)c(C)c3cccc1c32
2. CCCC(=O)Nc1nnc(CC(=O)OCC)s1
3. COc1cccc(CNC(=O)C2CCN(c3cnccn3)CC2)c1
4. CCOC(=O)N1CCN(C(=O)c2ccc3c(SCC(=O)O)c4c(nc3c2)CCCC4)CC1

A)
[95.7, 113, 88.4, 93.8]

The recorded viability for entry CCOc1ccccc1C1CC(=O)NC(SCC)=C1C#N (configuration not stated) equals 109

----------
# test-target: Receptor tyrosine-protein kinase erbB-2 (Homo sapiens)
# assay-procedure: reducers of endogenous Her2 protein level, primary screen, SKBR3 breast tumor cells, AlphaScreen, ATP viability (AID 461);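 also: lower value means less Her2 protein in the cells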
# test-parameters: 18-24 h, at 10 µM
Activity calls are given as the source filed them.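 How the source made its calls: active means Her2 level under about 52% in both replicate screens, with viability over 70% of control (limit read from the data); inconclusive means Her2 under the limit in one screen only, or viability under 70%; inactive means Her2 level above the set limit.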
Outcomes you can answer with include only these: 1 (yes) = active, 0 (no) = inactive

The following compounds have reported results that may help.
compound | test-target | assigned-label
CCCc1nnc(NC(=O)CCC(=O)N2CCN(CCOc3ccc(C)cc3)CC2)s1 | Receptor tyrosine-protein kinase erbB-2 (Homo sapiens) | 0 (no)
CN(Cc1ccccc1)c1nc2c(c(=O)[nH]c(=O)n2C)n1Cc1ccccc1Cl | Receptor tyrosine-protein kinase erbB-2 (Homo sapiens) | 0 (no)
O=C(C1CC1(c1ccccc1)c1ccccc1)N1CCOCC1 (stereo not drawn) | Receptor tyrosine-protein kinase erbB-2 (Homo sapiens) | 0 (no)
CC(C)(C)C(=O)Cn1c[n+](N)cn1 | Receptor tyrosine-protein kinase erbB-2 (Homo sapiens) | 0 (no)
CCn1cc(C2=NCC(C)O2)c2ccccc21 (stereo not drawn) | Receptor tyrosine-protein kinase erbB-2 (Homo sapiens) | 0 (no)

Now consider a different compound.
Q) State the result this test recorded for CC1CCCC(C)N1C(=O)COC(=O)c1ccc[nH]c1=O (stereo not drawn) .
A) 0 (no)

----------
# assay-procedure: Restrictive medium S. cerevisiae growth inhibition, OD615, pilot screen of yeast lifespan reduction project, restrictive growth control (AID 706);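 also: modified DeaD lifespan yeast strain shifted to restrictive glucose medium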
# test-parameters: OD615, 48 h, at 10 µM, active compounds read high
recorded-endpoint: growth inhibition (%)
Give bare numbers, in %.

Recorded growth inhibition, per entry:
molecule | test-value
O=C(CCCSc1nc2ccccc2s1)NCc1ccco1 | -1.56
CC(=O)N(Cc1ccco1)C1(C(=O)NC2CCCCC2)CCCCC1 | -22.6
Cc1ccccc1-c1nnc(SCC(=O)Nc2ccc(Cl)cc2)n1N | 0.61
COC(=O)/C=C(\C)NC(=O)c1cccs1 | 4.05
O=C(NC1CCCc2ccccc21)C1CCN(C(=O)c2sccc2-n2cccc2)CC1 (stereo not drawn) | -8.89

Go through the list and state growth inhibition for each entry.
1. CCN(CC)S(=O)(=O)c1ccc(C(=O)C(C#N)c2ccccn2)cc1 (stereo not drawn)
2. COc1ccc(C2=[N+]([O-])C(C)(C)N(O)C2(C)C)cc1
3. O=C1C(C=NCc2ccco2)=C(O)c2ccccc21
4. CCOc1ccccc1NC(=O)N1CCCC1C(=O)Nc1ccc(-n2cnnn2)c(C)c1 (stereo not drawn)
5. COc1cccc(C2NC(CCSC)(C(=O)O)C3C(=O)N(C(C)C)C(=O)C23)c1O (stereo not drawn)
6. CCCC(=O)NCCCc1nc2ccccc2n1CCC

A)
-19.5
12.9
-1.76
-16.2
8
-20.1

Go through the list and state growth inhibition for each entry.
1. COc1ccc(S(=O)(=O)N2CCN(c3cccc(C)c3C)CC2)cc1
2. O=C(Oc1c(Cl)cc(Cl)c2cccnc12)N1CCOCC1
3. O=C(Nc1ccccc1)c1ccc(S(=O)(=O)N2CCCCC2)cc1
4. CCOc1ccc2nc(N3CCC(C(=O)N4CCN(c5ncccn5)CC4)CC3)sc2c1
5. COc1ccc(C)cc1Nc1cc(C)nc2nc(C)nn12
6. O=C(Nc1ccccc1Cl)N1CCN(c2ccccn2)CC1
7. Cn1cnnc1SCCC(=O)Nc1ccccc1

A)
-13.3
2.49
-0.37
25.2
1.49
-5.88
0.795

----------
# assay-procedure: reversal of MRP1-mediated doxorubicin resistance, pilot screen, H69AR cells, doxorubicin co-treatment (AID 601)
# test-parameters: H69AR cells + 2 uM doxorubicin, CellTiter-Glo, 72 h; at 10 µM; active compounds read high
recorded-endpoint: differential viability (reversal) (%)
Give bare numbers, in %.

smiles-code | endpoint-unit | test-value
COc1ccc(S(=O)(=O)N2CCC(C(=O)c3ccc4c(c3)OCCO4)CC2)cc1 | % | 7.49
Cc1cc(=O)oc2cc(Oc3ncccn3)ccc12 | % | -6.5
COc1ccc(/C=N/n2c(=O)[nH]c3c([nH]c4ccc(C)cc43)c2=O)cc1CN1CCOCC1 | % | 0.925

Go through the list and state differential viability (reversal) for each entry.
1. Cc1ccc(Cl)cc1NC(=O)CSc1nnc(C)n1-c1ccccc1
2. CCCCCc1c(C)nc(N2CCc3ccccc32)[nH]c1=O
3. CCOc1ccc2[nH]c(=O)c(CN(CCOC)C(=O)N3CCOCC3)cc2c1
4. CC(C)(C)C(=O)Cn1c[n+](N)cn1

A)
1: 6.06; 2: -0.605; 3: -8.59; 4: 4.54

----------
# assay-procedure: HUVEC growth inhibition – cell-based, human, primary screen (AID 575);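 also: 100% = median of untreated cell wells with 0.1% DMSO on each plate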
# test-parameters: HUVEC proliferation, CellTiter-Glo luminescence, 72 h; at 10 µM; active compounds read low
Lab note: compare viability with 90%, writing T if less and F if equal or more.

The following molecules have reported results that may help.
molecule | assigned-label
N#Cc1c(N)nc2c(c1-c1ccncc1)CCCCC2 | T
COC(=O)c1ccccc1NC(=O)Cn1ccnc1 | T
CN(C)CCCN1c2ccccc2CCc2ccccc21 | T
COc1cccc(NC(=O)COc2ccccc2C(N)=O)c1 | T

Q) Hi there! Is viability for C=CCOC(=O)C1=C(C)OC(N)=C(C#N)C1c1ccc2c(c1)OCO2 (stereo not given) below 90%, do you know?
A) F

Q) Hi there! Is viability for CCOC(=O)c1[nH]c2ccccc2c1NC(=O)C(CC)CC below 90%, do you know?
A) T
